test system: MDA-MB-231 multicell spheroids, viability; assay: Anticancer human tumor MDA-MB-231 cell line growth inhibition [PI3K]; details: second compound 0.01 µM; first compound 10 µM; active compounds read low
For each of the molecules below, state its viability, T/C.
Give the number; % is assumed, so skip it.

Prompt line: # input molecule: CNC(=O)c1ccc(N2C(=S)N(c3ccc(C#N)c(C(F)(F)F)c3)C(=O)C2(C)C)cc1F + CC(Nc1ccc2c(c1)OCCn1cc(N3C(=O)OCC3C(F)F)nc1-2)C(N)=O ; wanted: its viability, T/C
Response line: 73

Prompt line: Next up: CC1(C)CCC(CN2CCN(c3ccc(C(=O)NS(=O)(=O)c4ccc(NCC5CCOCC5)c([N+](=O)[O-])c4)c(Oc4cnc5[nH]ccc5c4)c3)CC2)=C(c2ccc(Cl)cc2)C1 + CC(Nc1ccc2c(c1)OCCn1cc(N3C(=O)OCC3C(F)F)nc1-2)C(N)=O
Response line: 31.8

Prompt line: Next up: CNC(=O)c1ccc(N2C(=S)N(c3ccc(C#N)c(C(F)(F)F)c3)C(=O)C2(C)C)cc1F + COc1c(OCCCN2CCOCC2)ccc2c3n(c(=NC(=O)c4cnc(N)nc4)nc12)CCN3
Response line: 64.2

----------
For each of the compounds below, state its viability, T/C.
test system: MDA-MB-231 multicell spheroids, viability; assay: Anticancer human tumor MDA-MB-231 cell line growth inhibition [PI3K]; settings: second compound 10 µM; first compound 1 µM; active compounds read low;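 note: spheroids exposed to agents for seven days before reading; percent of vehicle control luminescence with DMSO treated spheroids as 100%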

Prompt line: viability, T/C of C[C@@H](NC(=O)c1ncnc(N)c1Cl)c1ncc(C(=O)Nc2cc(C(F)(F)F)c(Cl)cn2)s1 + CC(Nc1ncnc2nc[nH]c12)c1cc2cccc(Cl)c2c(=O)n1-c1ccccc1 on MDA-MB-231 multicell spheroids, viability?
Response line: 45.5%

Prompt line: Next up: CC(Cn1ccc(-c2ccc(C#N)c(Cl)c2)n1)NC(=O)c1cc(C(C)O)[nH]n1 (stereo unspecified) + CC(Nc1ncnc2nc[nH]c12)c1cc2cccc(Cl)c2c(=O)n1-c1ccccc1
Response line: 45.5%

Prompt line: Next up: CNC(=O)c1ccc(N2C(=S)N(c3ccc(C#N)c(C(F)(F)F)c3)C(=O)C2(C)C)cc1F + Cc1nc(NC(=O)N2CCCC2C(N)=O)sc1-c1ccnc(C(C)(C)C(F)(F)F)c1
Response line: 66.4%

Prompt line: Next up: CCCS(=O)(=O)Nc1ccc(F)c(C(=O)c2c[nH]c3ncc(-c4ccc(Cl)cc4)cc23)c1F + Cc1nc(NC(=O)N2CCCC2C(N)=O)sc1-c1ccnc(C(C)(C)C(F)(F)F)c1
Response line: 43%

Prompt line: Next up: CC1(C)CCC(Nc2ncc(C(F)(F)F)c(-c3c[nH]c4c(P(C)(C)=O)c(C#N)ccc34)n2)CN1 (stereo unspecified) + Cc1nc(NC(=O)N2CCCC2C(N)=O)sc1-c1ccnc(C(C)(C)C(F)(F)F)c1
Response line: 40.3%

Prompt line: Next up: CNC(=O)c1ccc(N2C(=S)N(c3ccc(C#N)c(C(F)(F)F)c3)C(=O)C2(C)C)cc1F + CC(Nc1ncnc2nc[nH]c12)c1cc2cccc(Cl)c2c(=O)n1-c1ccccc1
Response line: 49.4%

Prompt line: Next up: CC(C)NCC(C(=O)N1CCN(c2ncnc3c2C(C)CC3O)CC1)c1ccc(Cl)cc1 (stereo unspecified) + Cc1nc(NC(=O)N2CCCC2C(N)=O)sc1-c1ccnc(C(C)(C)C(F)(F)F)c1
Response line: 59.9%

Prompt line: Next up: Cn1nccc1Nc1nccc(-c2ccn(C(CO)c3ccc(Cl)c(F)c3)c(=O)c2)n1 (stereo unspecified) + CC(Nc1ncnc2nc[nH]c12)c1cc2cccc(Cl)c2c(=O)n1-c1ccccc1
Response line: 20.8%

Prompt line: Next up: CC(C)NCC(C(=O)N1CCN(c2ncnc3c2C(C)CC3O)CC1)c1ccc(Cl)cc1 (stereo unspecified) + CC(Nc1ncnc2nc[nH]c12)c1cc2cccc(Cl)c2c(=O)n1-c1ccccc1
Response line: 40.7%

Prompt line: Next up: C[C@@H](NC(=O)c1ncnc(N)c1Cl)c1ncc(C(=O)Nc2cc(C(F)(F)F)c(Cl)cn2)s1 + Cc1nc(NC(=O)N2CCCC2C(N)=O)sc1-c1ccnc(C(C)(C)C(F)(F)F)c1
Response line: 30.9%

Prompt line: Next up: C#Cc1c(F)ccc2cc(O)cc(-c3ncc4c(N5CC6CCC(C5)N6)nc(OCC56CCCN5CC(F)C6)nc4c3F)c12 (stereo unspecified) + CC(Nc1ncnc2nc[nH]c12)c1cc2cccc(Cl)c2c(=O)n1-c1ccccc1
Response line: 39.8%

----------
For each of the molecules below, state its viability, T/C.
system: MDA-MB-231 multicell spheroids, viability; test: Anticancer human tumor MDA-MB-231 cell line growth inhibition [PI3K]; settings: second compound 0.00316 µM; first compound 0.316 µM; active compounds read low;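 note: spheroids exposed to agents for seven days before reading; percent of vehicle control luminescence with DMSO treated spheroids as 100%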
Give the number; % is assumed, so skip it.

Prompt line: # input molecule: CC1(C)CCC(CN2CCN(c3ccc(C(=O)NS(=O)(=O)c4ccc(NCC5CCOCC5)c([N+](=O)[O-])c4)c(Oc4cnc5[nH]ccc5c4)c3)CC2)=C(c2ccc(Cl)cc2)C1 + COc1c(OCCCN2CCOCC2)ccc2c3n(c(=NC(=O)c4cnc(N)nc4)nc12)CCN3 ; wanted: its viability, T/C
Response line: 96.8

Prompt line: Next up: CNC(=O)c1ccc(N2C(=S)N(c3ccc(C#N)c(C(F)(F)F)c3)C(=O)C2(C)C)cc1F + COc1c(OCCCN2CCOCC2)ccc2c3n(c(=NC(=O)c4cnc(N)nc4)nc12)CCN3
Response line: 98.9

Prompt line: Next up: Cn1nccc1Nc1nccc(-c2ccn(C(CO)c3ccc(Cl)c(F)c3)c(=O)c2)n1 (stereo unspecified) + COc1c(OCCCN2CCOCC2)ccc2c3n(c(=NC(=O)c4cnc(N)nc4)nc12)CCN3
Response line: 48.3

Prompt line: Next up: C[C@@H](NC(=O)c1ncnc(N)c1Cl)c1ncc(C(=O)Nc2cc(C(F)(F)F)c(Cl)cn2)s1 + CC(Nc1ccc2c(c1)OCCn1cc(N3C(=O)OCC3C(F)F)nc1-2)C(N)=O
Response line: 86.7

Prompt line: Next up: C=CC(=O)N1CCN(c2nc(=O)n(-c3c(C)ccnc3C(C)C)c3nc(-c4c(O)cccc4F)c(F)cc23)C(C)C1 (stereo unspecified) + COc1c(OCCCN2CCOCC2)ccc2c3n(c(=NC(=O)c4cnc(N)nc4)nc12)CCN3
Response line: 104

Prompt line: Next up: Cn1nccc1Nc1nccc(-c2ccn(C(CO)c3ccc(Cl)c(F)c3)c(=O)c2)n1 (stereo unspecified) + CC(Nc1ccc2c(c1)OCCn1cc(N3C(=O)OCC3C(F)F)nc1-2)C(N)=O
Response line: 56.8

----------
test system: MDA-MB-231 multicell spheroids, viability; assay: Anticancer human tumor MDA-MB-231 cell line growth inhibition [PI3K]; conditions: second compound 0.316 µM; first compound 0.1 µM; active compounds read low;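 note: spheroids exposed to agents for seven days before reading; percent of vehicle control luminescence with DMSO treated spheroids as 100%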
For each of the molecules below, state its viability, T/C.
Give the number; % is assumed, so skip it.

Prompt line: viability, T/C of CC1(C)CCC(Nc2ncc(C(F)(F)F)c(-c3c[nH]c4c(P(C)(C)=O)c(C#N)ccc34)n2)CN1 (stereo not drawn) + Cc1nc(NC(=O)N2CCCC2C(N)=O)sc1-c1ccnc(C(C)(C)C(F)(F)F)c1 on MDA-MB-231 multicell spheroids, viability?
Response line: 42.7

Prompt line: Next up: CC1(C)CCC(Nc2ncc(C(F)(F)F)c(-c3c[nH]c4c(P(C)(C)=O)c(C#N)ccc34)n2)CN1 (stereo not drawn) + CC(Nc1ncnc2nc[nH]c12)c1cc2cccc(Cl)c2c(=O)n1-c1ccccc1
Response line: 39.4

Prompt line: Next up: CC(C)NCC(C(=O)N1CCN(c2ncnc3c2C(C)CC3O)CC1)c1ccc(Cl)cc1 (stereo not drawn) + COc1c(OCCCN2CCOCC2)ccc2c3n(c(=NC(=O)c4cnc(N)nc4)nc12)CCN3
Response line: 34

----------
system: MDA-MB-231 multicell spheroids, viability; experiment: Anticancer human tumor MDA-MB-231 cell line growth inhibition [PI3K]; details: second compound 0.01 µM; first compound 0.00316 µM; active compounds read low;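 note: spheroids exposed to agents for seven days before reading; percent of vehicle control luminescence with DMSO treated spheroids as 100%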
reported endpoint: viability, T/C (%)
Give the number; % is assumed, so skip it.

Prompt line: # input compound: CCN1CCN(Cc2ccc(Nc3ncc(F)c(-c4cc(F)c5nc(C)n(C(C)C)c5c4)n3)nc2)CC1 + COc1c(OCCCN2CCOCC2)ccc2c3n(c(=NC(=O)c4cnc(N)nc4)nc12)CCN3 ; wanted: its viability, T/C
Response line: 77.8

Prompt line: Next up: Cn1ncnc1[C@H]1c2n[nH]c(=O)c3cc(F)cc(c23)N[C@@H]1c1ccc(F)cc1 + CC(Nc1ccc2c(c1)OCCn1cc(N3C(=O)OCC3C(F)F)nc1-2)C(N)=O
Response line: 81.8

Prompt line: Next up: CC(=O)c1c(C)c2cnc(Nc3ccc(N4CCNCC4)cn3)nc2n(C2CCCC2)c1=O + CC(Nc1ccc2c(c1)OCCn1cc(N3C(=O)OCC3C(F)F)nc1-2)C(N)=O
Response line: 95.7
